The values you see were collected from paper PMC10164552.

# assayed-target: PBRM1 BD4 KRK_AAA (UniProt Q86U86 496-637, K511A;R512A;K513A)
# Sequence (Q86U86 496-637 K511A/R512A/K513A): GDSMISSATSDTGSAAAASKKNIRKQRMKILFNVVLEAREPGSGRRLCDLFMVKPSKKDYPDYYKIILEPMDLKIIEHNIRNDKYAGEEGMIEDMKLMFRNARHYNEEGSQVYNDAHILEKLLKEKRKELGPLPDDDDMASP
# experiment-description: NMR titration (1H-15N HSQC); NMR: 0.1 mM 15N-BD, 50 mM K phosphate pH 7.0, 50 mM KCl, 2 mM DTT, 2 mM EDTA, 7% D2O, 25 C; EMSA: 50 mM K phosphate pH 7.0, 10 mM KCl, 2 mM DTT, 2 mM EDTA, 5% sucrose, on ice 1 h, gel at 4 C
# reported-conditions: protein: recombinant; tags: His tag, TEV-cleaved; hairpin, UUCG loop
pKd: −log10 of the molar value.
measurement-name: pKd

# binder, readout-value
rows = [
    ("GCGUAGACAGCUGUUCGCAGCUGUCUACGC (structured_RNA) [dsRNAI stem-loop 30 nt]", 2.99),
]
